Origin of measurements: BindingDB's records for doi:10.1021/jm00012a002

- procedureText: Inhibitory effect on HIV-1 RT activity using template primer,poly (rC)-oligo (dG)
observedProperty: IC50

## Task IC50 lookup needed for CCN(C)C(=O)Oc1nsnc1-c1c(Cl)cccc1Cl , thanks.
## Result 300 nM

## Task IC50 lookup needed for CCCN(C)C(=O)Oc1nsnc1-c1c(Cl)cccc1Cl , thanks.
## Result 800 nM
